- ASSAY COMMENT: BSK_KF3CT_SRB: Viability Assessment in the BioMAP Diversity Plus: KF3CT Assay (AID 2283069);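 further: total protein by sulforhodamine B staining as a cytotoxicity measure; read 24 h after compound addition; fitted for both signal gain and loss against DMSO baseline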
- ASSAY CONTEXT: primary human keratinocytes with fibroblasts
Activity calls are given as the source filed them. How the source made its calls: active means hit-call score of the fitted dose curve at least 0.9, where 1 is the maximum; inactive means score below 0.9.
Choose the fitting class; nothing outside active, inactive is accepted.

Oc1ccc(Cl)cc1Cl	inactive

Now take the following compound into account.
**Q:** // outcome(item) with item = `Cc1cc(-c2ccc(N)c(C)c2)ccc1N`
**A:** inactive

###

- Read-out: Monokine induced gamma interferon (MIG), CXCL9 (gene 4283)
- ASSAY COMMENT: BSK_SAg_MIG: BioMAP Diversity Plus: SAg Assay for Monokine induced gamma interferon (MIG) Biomarker Activity (AID 2283092)
- ASSAY CONTEXT: primary human HUVEC with PBMC; actives raise or lower the signal
The source made the active and inactive calls. Rule for the calls: active = hit-call score of the fitted dose curve at least 0.9, where 1 is the maximum; inactive = score below 0.9.
Classes to choose from: 1.0 for active, 0.0 for inactive

CCC(C)c1cc([N+](=O)[O-])cc([N+](=O)[O-])c1O (stereo not drawn)	1.0

**Q:** What is the recorded call for this compound in the test? `CCC(C)(c1ccc(O)cc1)c1ccc(O)cc1`
**A:** 0.0

**Q:** Name the outcome recorded for `Sc1ccccc1` in the assay.
**A:** 0.0

**Q:** Check the results log: what was the call for `O=S(=O)(O)C(F)(F)C(F)(F)C(F)(F)C(F)(F)C(F)(F)C(F)(F)F` ?
**A:** 0.0

**Q:** What did this assay record as the result for `O=C(NC(=O)c1cc(F)c(F)cc1Cl)Nc1cc(F)ccc1N1CCC(C(=O)O)CC1` ?
**A:** 0.0

**Q:** Hi, do you know how `CCCCCCCCCc1ccc(O)cc1` came out in this test?
**A:** 1.0

**Q:** Could you check what this test reported for `Clc1ccc(C(Cl)(Cl)Cl)cc1` ?
**A:** 0.0
